# Tested on: Wild type
# experimentNotes: S. aureus survival, RN4220 and DeltatarO strains – OD600, teichoic acid synthesis inhibitors, primary screen (AID 463173)
# testParameters: S. aureus RN4220 wild type/DeltatarO growth, OD600, 18 h, hits give low values, screened at 18.75 µg/mL (by protocol)
The campaign covered roughly 52,000 compounds. About 1,700 (3.3%) were called active. Many of the other results were omitted from the sample, so actives are more common in it than they were.
Reported values of survival for individual entries
Numeric answer only, unit % assumed.

Examples with answers:
COc1ccc(Cn2ccc3nc(C)c(C(=O)Nc4ccc(OC)cc4)cc3c2=O)cc1    85
COc1ccc(Cn2ccc3nc(C)c(C(=O)Nc4ccc(OC)cc4OC)cc3c2=O)cc1    0
Cc1cccc(NC(=O)c2cc3c(=O)n(Cc4cccnc4)ccc3nc2C)c1    -3
COc1ccc(Cn2ccc3nc(C)c(C(=O)Nc4ccc(F)cc4)cc3c2=O)cc1    -3
CC(=O)Nc1ccc(NC(=O)c2cc3c(=O)n(Cc4cccnc4)ccc3nc2C)cc1    65
COc1ccc(NC(=O)c2cc3c(=O)n(Cc4cccnc4)ccc3nc2C)c(OC)c1    88
CCOc1ccc(CCNC(=O)Cn2nnc(-c3ccccc3)n2)cc1OCC    98
COc1ccc(Cn2ccc3nc(C)c(C(=O)Nc4ccc(OC(F)(F)F)cc4)cc3c2=O)cc1    90
Nc1cccc2c1C(=O)N(CC(=O)O)C2=O    104

**Query** Supply measured survival of COc1cccc(NC(=O)c2cc3c(=O)n(Cc4cccnc4)ccc3nc2C)c1 in your reply.
**Result** 78

----------
# Tested on: Wild type
# experimentNotes: S. aureus survival, RN4220 and DeltatarO strains – OD600, teichoic acid synthesis inhibitors, primary screen (AID 463173)
# testParameters: S. aureus RN4220 wild type/DeltatarO growth, OD600, 18 h, screened at 18.75 µg/mL (by protocol)
The whole screen tested about 52,000 compounds, of which about 1,700 (3.3%) were called active. Cut-off read from the data, not from the text of the source: active = survival mostly below about 52% (no sharp cut-off); inactive = mostly above about 56%. This excerpt belongs to a sample that is enriched for actives.
# output must be one of active, inactive

Consider the following illustrative entries.
O=C(NCC(c1cccs1)S(=O)(=O)c1cccs1)c1c(F)cccc1F (stereo unspecified)    inactive
COc1cc2[nH]c(=O)n(CCCC(=O)NCc3ccc(Cl)cc3)c(=O)c2cc1OC    inactive
Cc1ccc(-c2cc3ncc4c(n3n2)-c2cc(Cl)ccc2OC4)cc1    inactive
Cc1cc2nc3c(=O)n(C)c(=O)n(C)c3nc2cc1N=CN(C)C    inactive
Cc1cc(-c2ccccc2)n2nc(-c3ccccc3)cc2n1    active
O=C(Cn1nnc2sc3c(c2c1=O)CCCC3)Nc1ccc(F)c(Cl)c1    inactive

**Query** Hi, do you know how COc1ccc(Nc2ncnc3sc4c(c23)CCCC4)cc1 came out in this test?
**Result** inactive

**Query** Hi, do you know how CCOc1ccc(CN2CCC(C(=O)NCC3CCCO3)CC2)cc1OC (stereo unspecified) came out in this test?
**Result** inactive

**Query** Hi, do you know how CCOc1ccc(C(=O)N2CCCCC2CCN2CCOCC2)cc1 (stereo unspecified) came out in this test?
**Result** inactive

**Query** Hi, do you know how COc1ccc(N(C(=O)COc2ccc(Br)cc2)S(=O)(=O)c2ccc(C)cc2)cc1 came out in this test?
**Result** inactive

**Query** Hi, do you know how Cc1cc(-c2ccccc2)n2nc(-c3cccc(Br)c3)cc2n1 came out in this test?
**Result** inactive
